system: HBV rcDNA in HepDE19 cells; assay: HepDE19 assay with bDNA quantitation of HBV rcDNA; type: cell-based, hepatitis B virus (HBV); settings: Hepatitis B virus, HepDE19, 168 h, inhibition of rcDNA formation in HepDE19 cells (HepG2 derived), Tet-free medium, 7 day incubation, Quantigene 2.0 bDNA readout, top concentration 25 μM; read-out: DE-19bDNA EC50
pEC50: −log10 of the molar value.
Decide using pEC50: a value greater than or equal to 6 is Met, a smaller one is Not met.

- compound: "CN(C(=O)Nc1ccc(F)c(C(F)F)c1)[C@@H]1COCc2nc(OCCO)c3cc(F)c(F)cc3c21"
  targetOfAssay: "HBV rcDNA in HepDE19 cells"
  classLabel: "Met"
- compound: "COc1nc2c(c3cc(F)c(F)cc13)[C@H](N(C)C(=O)Nc1ccc(F)c(C(F)F)c1)COC2"
  targetOfAssay: "HBV rcDNA in HepDE19 cells"
  classLabel: "Met"
- compound: "CN(C(=O)Nc1ccc(F)c(Cl)c1)[C@@H]1COCc2c1c1cc(F)c(F)cc1c(=O)n2CCN"
  targetOfAssay: "HBV rcDNA in HepDE19 cells"
  classLabel: "Not met"
- compound: "CN(C(=O)Nc1ccc(F)c(Cl)c1)[C@@H]1COCc2c1c1cc(F)c(F)cc1c(=O)n2C"
  targetOfAssay: "HBV rcDNA in HepDE19 cells"
  classLabel: "Met"
- compound: "CN(C(=O)Nc1ccc(F)c(C(F)F)c1)[C@H]1COCc2[nH]c(=O)c3cc(F)c(F)cc3c21 (single isomer, unassigned)"
  targetOfAssay: "HBV rcDNA in HepDE19 cells"
  classLabel: "Met"

---

system: HBV rcDNA in HepDE19 cells; experiment: HepDE19 assay with bDNA quantitation of HBV rcDNA; assay type: cell-based, hepatitis B virus (HBV); conditions: Hepatitis B virus, HepDE19, 168 h, inhibition of rcDNA formation in HepDE19 cells (HepG2 derived), Tet-free medium, 7 day incubation, Quantigene 2.0 bDNA readout, top concentration 25 μM; read-out: DE-19bDNA EC50
In this section we review reported EC50 values for a set of compounds.
measurementType: EC50 (nM)

- compound: "Cc1cc(NC(=O)N(C)C2COCc3[nH]c(=O)c4cc(Cl)ccc4c32)ccc1F (stereo not shown)"
  targetOfAssay: "HBV rcDNA in HepDE19 cells"
  unitAnnotation: "nM"
  quantitativeResult: 40
- compound: "CN(C(=O)Nc1ccc(F)c(C(F)F)c1)[C@@H]1COCc2[nH]c(=O)c3cc(F)c(F)cc3c21 (single isomer, unassigned)"
  targetOfAssay: "HBV rcDNA in HepDE19 cells"
  unitAnnotation: "nM"
  quantitativeResult: 10
- compound: "O=C(Nc1ccc(F)c(Cl)c1)N[C@@H]1COCc2[nH]c(=O)c3cc(F)ccc3c21 (single isomer, unassigned)"
  targetOfAssay: "HBV rcDNA in HepDE19 cells"
  unitAnnotation: "nM"
  quantitativeResult: 90
- compound: "CC(C)CN(C(=O)Nc1ccc(F)c(F)c1)C1CCc2[nH]c(=O)cc(C(F)(F)F)c21 (stereo not shown)"
  targetOfAssay: "HBV rcDNA in HepDE19 cells"
  unitAnnotation: "nM"
  quantitativeResult: 1100

The measured values listed here are drawn from patent US20230108906A1.
